Listing of Ki toward UniProt:P20839, each taken from a published source.
Recorded metric: Ki (nM)

Worked set:
# Compound smiles, Reading unit, Observed value
data = [
    ("NC(=O)c1csc([C@@H]2O[C@H](COP(=O)(O)OP(=O)(O)OC[C@H]3O[C@@H](n4cnc5c(N)nc(I)nc54)[C@H](O)[C@@H]3O)[C@@H](O)[C@H]2O)n1", "nM", 19),
    ("COc1c(C)c2c(c(O)c1CCNS(=O)(=O)CS(=O)(=O)NC[C@H]1O[C@@H](n3cnc4c(N)nc(-c5ccccc5)nc43)[C@H](O)[C@@H]1O)C(=O)OC2", "nM", 660),
    ("COc1cc(NC(=O)C(=O)NCc2cccc(/C=C/C(=O)NO)c2)ccc1-c1cnco1", "nM", 4400),
]

(P) COc1c(C)c2c(c(O)c1C/C=C(\C)CCC(=O)Nc1ccccc1N)C(=O)OC2
(Q) COc1cc(NC(=O)C(=O)NCc2ccc(/C=C/C(=O)NO)cc2)ccc1-c1cnco1
Enquiry: Recorded Ki values differ for P and Q ; which one is higher? Output the label that corresponds to your choice.
Return: Q
(Q: 17000 nM, P: 2830 nM)

(a) NC(=O)c1csc([C@@H]2O[C@H](COP(=O)(O)CC(=O)NC[C@@H]3O[C@H](n4cnc5c(N)ncnc54)[C@@H](O)[C@H]3O)[C@@H](O)[C@H]2O)n1
(b) COc1c(C)c2c(c(O)c1CCOP(=O)(O)CP(=O)(O)O)C(=O)OC2
Enquiry: Recorded Ki values differ for a and b ; which one is higher? Output the label that corresponds to your choice.
Return: a
(a: 14200 nM, b: 890 nM)
